- System: IMR-32
- protocol.text: Evaluated for neuronal cell protectivity against beta-amyloid (25,35) insult towards IMR-32 human neuroblastoma cell
- Type: functional
- test.settings: read-out: ED50 (the source's name)
# EC50 values compiled below
endpoint.name: EC50 (µg/mL)

1) COc1cc(/C=C/C(=O)CC(=O)/C=C/c2ccc(O)c(OC)c2)ccc1O ... 7.4
2) COc1cc(/C=C/C(=O)COC(=O)/C=C/c2cccc(O)c2)ccc1O ... 15.8
3) COc1cc(/C=C/C(=O)COC(=O)/C=C/c2ccc(O)c(O)c2)ccc1O ... 7.9
4) COc1cc(/C=C/C(=O)COC(=O)/C=C/c2ccc(O)c(OC)c2)ccc1O ... 1.4
